measurementType: melting point

CCNC(=O)Nc1nc2cc(-c3cccnc3)cc(N3CCOCC3)n2n1; 298 to 300 °C
CC(C)C(C)NC1=NS(=O)(=O)c2cc(Cl)c(Cl)cc2N1 (stereo not given); 242 to 250 °C
Cn1cc(CCNC(=O)OC(C)(C)C)c2cc(S(=O)(=O)c3ccccc3)ccc21; 127 to 131 °C

Would you kindly share the measured melting point for NS(=O)(=O)c1ccc(-c2oc3ccc(F)cc3c(=S)c2-c2ccc(F)cc2)cc1 ?
224 to 225 °C

Query O=c1c2cc(F)ccc2nc(CSc2ncnc3[nH]cnc23)n1-c1ccccc1Cl next
233 °C

---

Measured melting point values are reported for all entries that follow.

Worked examples follow.
CCCC1CCC(/C(F)=C(\F)c2ccc(OCC)c(F)c2F)CC1 (centres undefined); 60 °C
COC(=O)NC1CCC(Nc2ncc3c(N)cc(=O)n(CCCO)c3n2)CC1 (centres undefined); 190 to 191 °C
CCCCOCCOc1ccc(-c2ccc(N3CCCC3)c(C=C(CC)C(=O)O)c2)cc1; 155 to 156 °C
Cc1ccc(-c2ccc(C(=O)Nc3ccc4nc(CN5C(C)(C)CCCC5(C)C)ccc4c3)cc2)cc1; 242 to 243 °C
CCCC(=NO)c1ccc(OCOC)cc1; 74 to 76 °C
O=C(O)CCCCCOc1cc(-c2ccccc2)cc(-c2ccccc2)n1; 87 to 88 °C
CC(=O)Nc1ccc(-c2cn(-c3nc(-c4ccc(C(F)(F)F)cc4)cc(C(F)(F)F)n3)cn2)cn1; 314 °C
CCCCN(Cc1ccc(-c2ccccc2-c2nnnn2C(c2ccccc2)(c2ccccc2)c2ccccc2)cc1)c1nc(C)ncc1C(=O)OCC; 130 to 132 °C

Shifting focus to the compound that follows.
Fill in: melting point of CCOC(=O)COc1cc2cc(CC(C)C)sc2c(Cl)c1Cl is ___
75 to 76 °C

---

Each entry below carries its recorded melting point.

Worked cases, answers included:
Cc1nc2c(O)c(C(=O)[C@H](O)[C@@H](O)c3ccccc3)ccc2n1C; 170 °C
COC(=O)CC(=O)c1cc(F)c(F)c(F)c1F; 68 to 72 °C
O=C(c1ccc(-c2ccccc2)cc1)N1CCc2cn[nH]c2-c2ncccc21; 205 to 206 °C
O=C(O)c1cc2ccc(OCCNC[C@H](O)COc3ccccc3)cc2o1; 214 to 217 °C

# lookup: melting point of O=C(NCc1ccn(-c2cc3c(cc2[N+](=O)[O-])[nH]c(=O)c(=O)n3C2CCCCC2)c1)Nc1ccncc1
> 200 °C

---

Items are presented alongside their recorded melting point.

// solved cases for melting point follow
CSCc1nnc(-c2ccc3occ(-c4cccc(OC(F)(F)F)c4)c3c2)o1; 84 to 85 °C
O=C1CC(C(=O)NC(Cc2c[nH]cn2)C(=O)OCc2ccccc2)N1 (centres undefined); 196 to 199 °C
O=C(Cc1c(C(=O)c2ccccc2)[nH]c2cc(Cl)ccc12)NCCO; 178 to 180 °C
CCS(=O)(=O)N1CCN(C(=O)OC2CCC3(CO3)C(C3(C)OC3CC=C(C)C)C2OC)CC1 (centres undefined); 91 to 92 °C
N#CC1Sc2ccccc2N1C(=O)c1ccc(F)cc1 (centres undefined); 150 to 151 °C

For the molecule N#CC1=C(c2cccs2)Nc2n[nH]cc2C1c1ccccc1Cl (centres undefined) , what melting point is on record?
174 °C

Now consider O=c1c2cc(F)c(Cl)nc2n(-c2ccc(C(F)(F)F)cc2)c(=O)n1OCc1ccccc1 .
245 to 246 °C

Another molecule to check: CN(CCC(Oc1ccc(S(=O)(=O)c2ccccc2)cc1)c1ccccc1)CC(=O)O (centres undefined)
95 to 100 °C

Next molecule: COCC1CCCN1S(=O)(=O)c1cc2c(cc1Cl)N1CCCN=C1C2=O (centres undefined)
127 to 130 °C
